Assay: Oxygen Radical Absorbance Capacity assay (ORAC)
Details: pure compounds tested at the concentration naturally present within the EO; n = 3; n.r. = IC50 not reached
QUANTITY_KIND: ORAC IC50 (95% confidence limits)

[[record]]
molecule = "C=C1CCC2CC1C2(C)C (stereo not drawn) [β-Pinene]"
measured_value = "n.r."

[[record]]
molecule = "CC1=CCC2CC1C2(C)C (stereo not drawn) [α-Pinene]"
measured_value = "n.r."

[[record]]
molecule = "CC1=CCC(C(C)C)=CC1 [γ-Terpinene]"
measured_value = "n.r."

[[record]]
molecule = "CC1=CCC(=C(C)C)CC1 [Terpinolene]"
measured_value = "0.01 (0.00–0.04) mg/mL"

